subjectOfTest: Ubiquitin-activating enzyme e1, putative (Leishmania donovani (strain BPK282A1))
test: Leishmania donovani Ubiquitin Activating Enzyme (LdE1)
Format: functional
Set-up: scale not given: direction of the effect not stated beside the values
conditionParameters: 30 µM
Results with a measured potency or affinity are listed apart.
measurementType: Percent Effect
Please answer using the number first and the unit second.

Please review the following examples before continuing.
[
  {
    "molecule": "Fc1cnc(N2CCCC3(CCN(Cc4ccsc4)C3)C2)nc1 (stereo not drawn)",
    "endpointValue": "3.9%"
  },
  {
    "molecule": "CNCCc1nc2cc(Cl)ccc2[nH]1",
    "endpointValue": "0%"
  },
  {
    "molecule": "CN(CCc1ccc(F)cc1)Cc1nc2c(cnn2C)c(=O)[nH]1",
    "endpointValue": "21.1%"
  },
  {
    "molecule": "Cc1nc(NCC2CC2)nc2c1COCC21CCN(C)C1 (stereo not drawn)",
    "endpointValue": "18.7%"
  },
  {
    "molecule": "CC(C)(C)n1cc(C2=CCN(CCc3ccccc3)CC2)cn1",
    "endpointValue": "1.39%"
  },
  {
    "molecule": "O=C(Nc1cccnc1)[C@H]1CN(Cc2nccs2)C[C@H]2OCC[C@@H]12",
    "endpointValue": "2.67%"
  },
  {
    "molecule": "CC1=N[C@@]2(CC[C@@H]3CNC[C@@H]32)C(=O)N1CC(C)C",
    "endpointValue": "13.5%"
  }
]

Let us examine a further case.
Supply recorded Percent Effect for `c1ccc(O[C@H]2CC[C@H]3[C@H]2OCCN3Cc2nccs2)nc1` here.
-5.2%
